- System: beta-tubulin
- experimental_details: Inhibition of tubulin polymerization in MCF-7 cells (beta-tubulin SimpleStep ELISA)
- Assay type: cell-based, human
- protocol_conditions: MCF7 cells, concentration not given
readout: tubulin polymerization % inhibition (%)
Report the value in % with no unit label.

If you can, please state the reported tubulin polymerization % inhibition value of Cc1cc(-c2ccco2)c(C#N)c2nnnn12 .
68.9

If you can, please state the reported tubulin polymerization % inhibition value of COc1ccc(-c2cc(-c3cc(OC)c(OC)c(OC)c3)c(C#N)c3nnnn23)cc1OC .
49.8

If you can, please state the reported tubulin polymerization % inhibition value of COc1cc(-c2cc(-c3cc(OC)c(OC)c(OC)c3)c(C#N)c(Cl)n2)cc(OC)c1OC .
74.7

If you can, please state the reported tubulin polymerization % inhibition value of COc1ccc(-c2cc(-c3cc(OC)c(OC)c(OC)c3)c(C#N)c3nnnn23)cc1 .
75

If you can, please state the reported tubulin polymerization % inhibition value of COc1cc(-c2cc(-c3ccco3)c(C#N)c(Cl)n2)cc(OC)c1OC .
55.4

If you can, please state the reported tubulin polymerization % inhibition value of Cc1cc(-c2ccco2)c(C#N)c(N=P(c2ccccc2)(c2ccccc2)c2ccccc2)n1 .
61.2

If you can, please state the reported tubulin polymerization % inhibition value of COc1ccc(-c2cc(-c3cc(OC)c(OC)c(OC)c3)c(C#N)c(N=P(c3ccccc3)(c3ccccc3)c3ccccc3)n2)cc1OC .
61.9

If you can, please state the reported tubulin polymerization % inhibition value of COc1ccc(-c2cc(-c3cc(OC)cc(OC)c3)c(C#N)c(Cl)n2)cc1 .
70.9
